# System: OVCAR-3 ovarian
# test method notes: NCI tumour cell line growth inhibition, 48 h; in the data active = GI50 below about 0.43 µM; inactive = the rest
Possible outcomes: active, inactive

smiles repr | class name
COc1cc([C@@H]2c3cc4c(cc3[C@H](SC(=N)N)[C@H]3COC(=O)[C@H]23)OCO4)cc(OC)c1OC | active
Cc1ccc(C(=O)Nc2ccc(Oc3cc4cnn(C)c4cc3-c3cn[nH]c3)c(F)c2)c(=O)n1-c1ccc(F)cc1 | inactive
Cc1ccc2ccc3c4ccccc4ccc3c2c1 | inactive
Cn1cc(-c2ccc3ncc(-c4ccc(CC(=O)Nc5cc(C(C)(C)C)nn5C)cc4)cc3c2)cn1 | inactive
CN(C)CCCOc1ccc(NC2=C(Cl)C(=O)C(Nc3ccc(OCCCN(C)C)cc3)=C(Cl)C2=O)cc1 | active
